target: Bcl-2 protein (Recombinant Human Bcl-2 Protein) (Homo sapiens); construct: purchased Novus Biologicals NBP2-34889; experiment: AS-MS evaluation of binding of the Example 4 mixture library (1200 compounds/well) to Bcl-2, ASMS ratio (%); details: AS-MS, mixture of 1200 compounds/well, Bcl-2 protein; replicate n = 1
PROPERTY_MEASURED: ASMS ratio (%) n = 1

Sample answers from the record:
COMPOUND: CCCNC(=O)c1ccc(N2CCN(C(=O)c3cc(-c4cncc(OCC)c4)cc(C(C)(C)C)c3)CC2)nn1
UNITS_SYMBOL: %
ASMS ratio (%) n = 1: 0.0
//
COMPOUND: CCCNC(=O)c1ccc(N2CCN(C(C)c3ccc(-c4cncc(OCC)c4)cc3)CC2)cc1 (stereo not drawn)
UNITS_SYMBOL: %
ASMS ratio (%) n = 1: 0.9

1. CCCNC(=O)c1ccc(N2CCN(C(=O)CCc3ccccc3-c3cccc(OCC)c3)CC2)nn1
2. CCCNC(=O)c1ccc(N2CCN(C(=O)c3cc(-c4cncc(OCC)c4)cc(C(F)(F)F)c3)CC2)nn1
3. CCOc1cccc(-c2cc(CN3CCN(c4ccc(C(=O)NCC(F)(F)F)cc4)CC3)cc(OC(F)(F)F)c2)c1
4. CCOc1cccc(C#Cc2cc(C(=O)N3CCN(c4ccc(C(=O)N(C)CC56CC7CC(CC(C7)C5)C6)nn4)CC3)cc(C(F)(F)F)c2)c1
Q: Highest ASMS ratio (%) n = 1 first, then in falling order down to the smallest. When ranking, write the labels in the order the request describes.
A: 1, 3, 4, 2

----------
target: Bcl-2 protein (Recombinant Human Bcl-2 Protein) (Homo sapiens); construct: purchased Novus Biologicals NBP2-34889; test: AS-MS evaluation of binding of the mixture libraries of Examples 8 and 9 to Bcl-2, ASMS ratio (%), Example 11; settings: ASMS ratio, replicate N3 (additional day); mixtures obtained from Example 9, 10 uM Bcl-2 protein
PROPERTY_MEASURED: AS-MS(%) N3

Sample answers from the record:
COMPOUND: CC(C(=O)Nc1nc2ccccc2s1)c1cc(O)cc(N2CCN(c3ccc(C(=O)NS(=O)(=O)c4ccc(NCCSc5ccccc5)c([N+](=O)[O-])c4)cc3)CC2)c1 (centres unmarked)
SYSTEM_UNDER_TEST: Bcl-2 protein (Recombinant Human Bcl-2 Protein) (Homo sapiens)
AS-MS(%) N3: 35.6

COMPOUND: Cc1ccc(NC(=O)C(C)c2cc(O)cc(N3CCN(c4ccc(C(=O)NS(=O)(=O)c5ccc(N[C@H](CCN6CCOCC6)CSc6ccccc6)c([N+](=O)[O-])c5)cc4)CC3)c2)cc1 (some centres unmarked)
SYSTEM_UNDER_TEST: Bcl-2 protein (Recombinant Human Bcl-2 Protein) (Homo sapiens)
AS-MS(%) N3: 60.9

1. CCOc1cc(N2CCN(c3ccc(C(=O)NS(=O)(=O)c4ccc(N[C@H](CCN5CCOCC5)CSc5ccccc5)c([N+](=O)[O-])c4)cc3)CC2)cc2c1CCCC2C(=O)Nc1ccccc1 (some centres unmarked)
2. CC(C(=O)Nc1nc2ccccc2s1)c1cc(O)cc(N2CCN(c3ccc(C(=O)NS(=O)(=O)c4ccc(N[C@H](CCN5CCOCC5)CSc5ccccc5)c([N+](=O)[O-])c4)cc3)CC2)c1 (some centres unmarked)
3. CCOc1cc(C(C)C(=O)Nc2ccccc2)cc(N2CCN(c3ccc(C(=O)NS(=O)(=O)c4ccc(N[C@H](CCN5CCOCC5)CSc5ccccc5)c([N+](=O)[O-])c4)cc3)CC2)c1 (some centres unmarked)
Q: Highest AS-MS(%) N3 first, then in falling order down to the smallest. When ranking, write the labels in the order the request describes.
A: 2, 3, 1

----------
biological target: Bcl-2 protein (Recombinant Human Bcl-2 Protein) (Homo sapiens); construct: purchased Novus Biologicals NBP2-34889; test: AS-MS evaluation of binding of the Example 4 mixture library (1200 compounds/well) to Bcl-2, ASMS ratio (%); details: replicate n = 1; mixture library; value belongs to the MS peak assigned to the compound
PROPERTY_MEASURED: ASMS ratio (%) n = 1

Sample answers from the record:
ITEM_SMILES: CCOc1cncc(-c2cnn(-c3cc(C(=O)N4CCN(c5ccc(C(=O)NS(=O)(=O)C(C)(C)C)cc5)CC4)cc(C(F)(F)F)c3)c2)c1
SYSTEM_UNDER_TEST: Bcl-2 protein (Recombinant Human Bcl-2 Protein) (Homo sapiens)
UNITS_SYMBOL: %
QUANTITATIVE_RESULT: 0.0
--
ITEM_SMILES: CCOc1cccc(-c2ccccc2CN2CCN(c3ccc(C(=O)NS(C)(=O)=O)cc3)CC2)c1
SYSTEM_UNDER_TEST: Bcl-2 protein (Recombinant Human Bcl-2 Protein) (Homo sapiens)
UNITS_SYMBOL: %
QUANTITATIVE_RESULT: −0.3
--
ITEM_SMILES: CCOc1cccc(-c2cc(OC)c(CN3CCN(c4ccc(C(=O)NS(C)(=O)=O)nn4)CC3)c(OC)c2)c1
SYSTEM_UNDER_TEST: Bcl-2 protein (Recombinant Human Bcl-2 Protein) (Homo sapiens)
UNITS_SYMBOL: %
QUANTITATIVE_RESULT: 0.0

P. CCOc1cncc(-c2cc(C(=O)N3CCN(c4ccc(C(=O)NS(=O)(=O)C(C)(C)C)cc4)CC3)cc(C(F)(F)F)c2)c1
Q. CCOc1cncc(-c2ccccc2CN2CCN(c3ccc(C(=O)NS(=O)(=O)C(C)(C)C)cc3)CC2)c1
R. CCOc1cncc(-c2cc(C(=O)N3CCN(c4ccc(C(=O)NS(=O)(=O)C(C)(C)C)nn4)CC3)cc(C(F)(F)F)c2)c1
Q: Which order do these items take when sorted by rising ASMS ratio (%) n = 1? List them. When ranking, write the labels in the order the request describes.
A: R, P, Q
(R: −1.9%, P: −0.2%, Q: 0.0%)

----------
target: Bcl-2 protein (Recombinant Human Bcl-2 Protein) (Homo sapiens, UniProt P10415); construct: purchased Novus Biologicals NBP2-34889; experiment: AS-MS evaluation of binding of the Example 4 mixture library (1200 compounds/well) to Bcl-2, ASMS ratio (%); conditions: AS-MS, Example 4 mixture library, Bcl-2, replicate n = 2
Sequence (P10415 whole entry): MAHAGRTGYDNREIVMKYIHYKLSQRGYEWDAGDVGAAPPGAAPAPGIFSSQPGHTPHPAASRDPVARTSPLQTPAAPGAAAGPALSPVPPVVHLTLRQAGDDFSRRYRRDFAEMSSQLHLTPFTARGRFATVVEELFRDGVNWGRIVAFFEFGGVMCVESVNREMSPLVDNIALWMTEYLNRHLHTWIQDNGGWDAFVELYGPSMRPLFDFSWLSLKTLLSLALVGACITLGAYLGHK
PROPERTY_MEASURED: ASMS ratio (%) n = 2

MOLECULE: CCOc1cncc(-c2cc(OC)c(CN3CCN(c4ccc(C(=O)NS(=O)(=O)c5ccc(NCCSc6ccccc6)c(C(F)(F)F)c5)cc4)CC3)c(OC)c2)c1 [Compound B2R060-01]
UNITS_SYMBOL: %
ASMS ratio (%) n = 2: 0.0

P. CCOc1cccc(-c2ccc(CN3CCN(c4ccc(C(=O)NS(=O)(=O)CCC(F)(F)F)cc4)CC3)c(CC)c2)c1 [Compound B2N049-01]
Q. CCOc1cncc(-c2ccc(CN3CCN(c4ccc(C(=O)NS(=O)(=O)c5ccc(NCCSc6ccccc6)c(C(F)(F)F)c5)cc4)CC3)c3ccccc23)c1 [Compound B2R066-01]
R. CCOc1cccc(-c2cc(C(=O)N3CCN(c4ccc(C(=O)NS(=O)(=O)c5ccc(NCCSc6ccccc6)c(C(F)(F)F)c5)nn4)CC3)cc(C(F)(F)F)c2)c1 [Compound B2R017-01]
S. CCOc1cncc(-c2cc(CN3CCN(c4ccc(C(=O)NS(=O)(=O)c5ccc(NCCSc6ccccc6)c(C(F)(F)F)c5)nn4)CC3)cc(OC(F)(F)F)c2)c1 [Compound B2R090-01]
Q: Highest ASMS ratio (%) n = 2 first, then in falling order down to the smallest. When ranking, write the labels in the order the request describes.
A: R, S, P, Q

----------
molecular target: Bcl-2 protein (Recombinant Human Bcl-2 Protein) (Homo sapiens, UniProt P10415); construct: purchased Novus Biologicals NBP2-34889; assay: AS-MS evaluation of binding of the Example 4 mixture library (1200 compounds/well) to Bcl-2, ASMS ratio (%); conditions: replicate n = 2; mixture library; value belongs to the MS peak assigned to the compound
PROPERTY_MEASURED: ASMS ratio (%) n = 2

Sample answers from the record:
COMPOUND: CCOc1cccc(-c2cc(OC)c(CN3CCN(c4ccc(C(=O)NS(=O)(=O)C(C)(C)C)cc4)CC3)c(OC)c2)c1 [Compound B2L059-01]
PROPERTY_MEASURED: ASMS ratio (%) n = 2
UNITS_SYMBOL: %
QUANTITATIVE_RESULT: 0.0

COMPOUND: CCOc1cncc(-c2ccc(CN3CCN(c4ccc(C(=O)NS(=O)(=O)C(C)(C)C)nn4)CC3)c(OC)c2)c1 [Compound B2L080-01]
PROPERTY_MEASURED: ASMS ratio (%) n = 2
UNITS_SYMBOL: %
QUANTITATIVE_RESULT: 0.0

a. CCOc1cccc(-c2ccc(C(=O)N3CCN(c4ccc(C(=O)NS(=O)(=O)C(C)(C)C)nn4)CC3)c3ccccc23)c1 [Compound B2L013-01]
b. CCOc1cncc(-c2ccc(CN3CCN(c4ccc(C(=O)NS(C)(=O)=O)nn4)CC3)c3ccccc23)c1 [Compound B2I092-01]
Q: Looking at a and b , which one comes out lower in ASMS ratio (%) n = 2 terms? Lab log: write the label of the selected item as the result.
A: a
(a: 0.0%, b: 0.3%)

Source of measurements: patent US20250154686A1
